- assayExplanation: Cytostatic effect on Huh-5-2 cells (MTS method, parallel cultures)
- Type: cell-based
- statedConditions: human, read-out: CC50 (concentration required to inhibit the proliferation of exponentially growing Huh-5-2 cells by 50%)
Documented CC50 at 72 h across a set of compounds
Your answer should be a plain number; it is taken to be in µM.

Asked: Complete the entry with CC50 at 72 h for O=c1oc2ccc(Br)cc2cc1CSc1nc2cccnc2[nH]1 [Compound 16c]
Given back: 128

Asked: Complete the entry with CC50 at 72 h for CC(=O)OCC1OC(n2c(SCc3cc4cc(Br)ccc4oc3=O)nc3ccccc32)C(OC(C)=O)C(OC(C)=O)C1OC(C)=O (centres unmarked)
Given back: 43.1

Asked: Complete the entry with CC50 at 72 h for CC(=O)OCC1OC(n2c(SCc3cc4cc(Br)ccc4oc3=O)nc3ccccc32)CC(OC(C)=O)C1OC(C)=O (centres unmarked) [Compound 22c]
Given back: 16.1

Asked: Complete the entry with CC50 at 72 h for O=C(c1ccccc1)c1ccc2[nH]c(SCc3cc4ccccc4oc3=O)nc2c1
Given back: 36.8

Asked: Complete the entry with CC50 at 72 h for O=c1oc2ccccc2cc1CSc1nc2cnc(Cl)nc2[nH]1 [Compound 16d]
Given back: 109

Next:
Asked: Complete the entry with CC50 at 72 h for CC(=O)OCC1OC(n2c(SCc3cc4ccccc4oc3=O)nc3cc(Cl)c(Cl)cc32)C(OC(C)=O)C(OC(C)=O)C1OC(C)=O (centres unmarked)
Given back: 19.8

Asked: Complete the entry with CC50 at 72 h for O=c1oc2ccccc2cc1CSc1nc2cc(F)ccc2[nH]1
Given back: 44.8

Asked: Complete the entry with CC50 at 72 h for O=c1oc2ccc(Br)cc2cc1CSc1nc2cc(Cl)c(Cl)cc2[nH]1
Given back: 44.1

---

- Tested on: HCV Subgenomic Replicon
- assayExplanation: HCV-Huh-5-2 replicon cell assay (luciferase)
- Type: cell-based, Hepatitis C virus
- statedConditions: Hepatitis C virus; HCV subgenomic replicon in Huh-5-2 cells, 72 hours, luciferase; read-out: EC50 (concentration required to inhibit luciferase activity in the replicon system by 50%)
# if measured EC50 < 4 µM: 1  # else: -1

Asked: Item COc1cccc2cc(CSc3nc4cccnc4[nH]3)c(=O)oc12 [Compound 16b] : EC50 beneath 4 µM, strictly?
Given back: -1

Next:
Asked: Item COc1cccc2cc(CSc3nc4cc(Cl)c(Cl)cc4n3C3OC(COC(C)=O)C(OC(C)=O)C(OC(C)=O)C3OC(C)=O)c(=O)oc12 (stereo not shown) [Compound 7h] : EC50 beneath 4 µM, strictly?
Given back: -1

---

- Test system: HCV Subgenomic Replicon
- assayExplanation: HCV-Huh-5-2 replicon cell assay (luciferase)
- Format: cell-based, Hepatitis C virus
- statedConditions: Hepatitis C virus; HCV subgenomic replicon in Huh-5-2 cells, 72 hours, luciferase; read-out: EC50 (concentration required to inhibit luciferase activity in the replicon system by 50%)
- Procedure: Huh-5-2 cells [a cell line with a persistent HCV replicon I3891uc-ubi-neo/NS3-3′/5.1; replicon with firefly luciferase-ubiquitin-neomycin phosphotransferase fusion protein and EMCV-IRES driven NS3-5B HCV polyprotein] was cultured in RPMI medium (Gibco) supplemented with 10% fetal calf serum, 2 mM L-glutamine (Life Technologies), 1× non-essential amino acids (Life Technologies); 100 IU/ml penicillin and 100 ug/ml streptomycin and 250 ug/ml G418 (Geneticin, Life Technologies). […]
measurementKind: EC50 (µM)
Your answer should be a plain number; it is taken to be in µM.

Asked: Complete the entry with EC50 for CC(=O)OCC1OC(n2c(SCc3cc4ccccc4oc3=O)nc3cc(C)ccc32)C(OC(C)=O)C(OC(C)=O)C1OC(C)=O (centres unmarked) [Compound 7b]
Given back: 8.28
